Molecular target: human MET Fc fusion protein (R&D Systems) (human) (UniProt P08581)
Sequence (P08581 25-932 limits assumed): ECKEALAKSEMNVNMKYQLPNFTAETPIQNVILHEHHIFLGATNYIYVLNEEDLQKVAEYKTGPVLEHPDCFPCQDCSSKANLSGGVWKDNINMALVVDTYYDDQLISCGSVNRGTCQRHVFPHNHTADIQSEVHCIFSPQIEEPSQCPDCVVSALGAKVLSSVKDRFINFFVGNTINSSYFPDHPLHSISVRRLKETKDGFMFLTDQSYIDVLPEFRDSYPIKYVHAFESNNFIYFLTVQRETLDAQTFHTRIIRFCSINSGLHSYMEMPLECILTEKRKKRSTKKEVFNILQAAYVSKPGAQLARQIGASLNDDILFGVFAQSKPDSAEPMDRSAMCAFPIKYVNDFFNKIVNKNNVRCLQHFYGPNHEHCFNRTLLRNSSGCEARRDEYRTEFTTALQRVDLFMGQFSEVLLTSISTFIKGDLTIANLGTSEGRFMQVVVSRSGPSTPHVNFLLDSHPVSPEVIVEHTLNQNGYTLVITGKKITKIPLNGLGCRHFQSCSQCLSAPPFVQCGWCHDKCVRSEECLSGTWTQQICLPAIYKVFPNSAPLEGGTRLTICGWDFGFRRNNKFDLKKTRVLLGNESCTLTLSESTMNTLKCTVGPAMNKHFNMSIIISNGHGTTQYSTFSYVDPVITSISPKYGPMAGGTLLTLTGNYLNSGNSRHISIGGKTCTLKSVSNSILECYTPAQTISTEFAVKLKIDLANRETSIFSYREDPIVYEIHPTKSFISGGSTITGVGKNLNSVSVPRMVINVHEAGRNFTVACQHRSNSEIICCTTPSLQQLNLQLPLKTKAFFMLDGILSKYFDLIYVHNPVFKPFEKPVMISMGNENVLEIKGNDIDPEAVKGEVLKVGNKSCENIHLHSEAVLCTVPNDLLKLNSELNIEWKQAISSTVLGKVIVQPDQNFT
Experiment: BLI; MET-Fc saturated with antibody at 80 ug/ml (533 nM), then HGF as competitor at 20 ug/ml

{"binder": "13-MET antibody analog (antibody, from another filing, IgG1, V domains shown) VH: QVQLKESGPALVKPTQTLTLTCTFSGFSLSTSGMVVSWIRQPPGKALEWLAFISWDDDKYYSTSLKTRLTISKDTSKNQVVLTMTNMDPVDTATYYCAREPGRYGGYYFDYWGQGTLVTVSS VL: DIQMTQSPSSLSASVGDRVTITCRASQTISHYLAWYQQKPGKAPKLLIYAASILQSGVPSRFSGSGSGTDFTLTISSLQPEDFAVYYCQQYSGFPVTFGQGTKVEIKR", "% HGF binding inhibition (%)": 81}
{"binder": "28-MET antibody analog (antibody, from another filing, IgG1, V domains shown) VH: QVQLQESGPGLVKPGETLSLTCTVSGGSISGYYWSWIRQAPGKGLEWIGEIYYAGSTLYNPSLKGRVTISVDTSKNQFSLKLSSVTAEDTAVYYCARHYGLDWFGDTGMDVWGQGTLVTVSS VL: DIELTQPPSVSVAPGQSITISCSGDNLGDKYVHWYQQKPGQAPVLVIYDDNERPSGIPERFSGSNSGNTATLTISGTQAEDEADYYCSAYGSHSGTVFGGGTKLTVLG", "% HGF binding inhibition (%)": 50}
{"binder": "223C4 antibody analog (antibody, from another filing, IgG1, V domains shown) VH: EVLLQQSGPELVKPGASVKIPCKASGYTFTDYNMDWVKQSHGMSLEWIGDINPNNGGTIFNQKFKGKATLTVDKSSSTAYMELRSLTSEDTAVYYCARGRYVGYYYAMDYWGQGTSVTVSS VL: DIQMTQSPASLSVSVGETVTITCRASENIYSNLAWYQQKQGKSPQLLVYAATNLVDGVPSRFSGSGSGTQYSLKINSLQSEDFGSYYCQHFWGPPYTFGGGTKLEIK", "% HGF binding inhibition (%)": 69}
{"binder": "36C4 antibody analog (antibody, from another filing, IgG1, V domains shown) VH: QVQLVESGPGLVKPSQTLSLTCAVSGGSITTNYYYWSWIRQSPGKGLEWMGVIAYDGSTDYSPSLKSRTSISRDTSKNQFSLQLSSVTPEDTAVYYCARDVRVIATGWATANALDAWGQGTLVTVSS VL: QSVLTQPPSVSGSPGKTVTISCAGTSSDVGYGNYVSWYQQLPGTAPKLLIFAVSYRASGIPDRFSGSKSGNTAFLTISGLQSEDEADYYCASYRSSNNAAVFGGGTHLTVL", "% HGF binding inhibition (%)": 74}
